Quantity Name: pIC50
As a rule, pIC50 stands for the negative log10 of the concentration, concentration in M.

Value wanted: pIC50 (PTP-SL (Homo sapiens)) of entry `Cl.Nc1cc(C(F)(F)F)cc2c1SSSSS2`
6.66

###

# Assay System: HePTP (Homo sapiens, UniProt P35236)
# Sequence (P35236 whole entry): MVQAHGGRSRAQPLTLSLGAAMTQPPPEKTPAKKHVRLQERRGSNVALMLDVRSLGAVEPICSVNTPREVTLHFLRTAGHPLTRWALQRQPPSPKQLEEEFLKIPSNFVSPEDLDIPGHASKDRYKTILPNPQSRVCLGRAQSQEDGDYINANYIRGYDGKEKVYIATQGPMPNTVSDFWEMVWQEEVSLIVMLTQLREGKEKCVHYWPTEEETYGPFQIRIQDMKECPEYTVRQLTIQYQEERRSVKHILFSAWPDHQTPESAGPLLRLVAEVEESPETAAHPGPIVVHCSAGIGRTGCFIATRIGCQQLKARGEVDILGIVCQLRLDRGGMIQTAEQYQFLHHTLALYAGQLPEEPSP
Quantity Name: IC50 (nM)
Form entry: value (nM) — number only.

Name the reported IC50 value associated with the compound Cl.Nc1cc(C(F)(F)F)cc2c1SSSSS2 [TC-2153]
363

###

# Assay System: SHP-2 (Homo sapiens, UniProt Q06124)
# Sequence (Q06124 whole entry, species assumed): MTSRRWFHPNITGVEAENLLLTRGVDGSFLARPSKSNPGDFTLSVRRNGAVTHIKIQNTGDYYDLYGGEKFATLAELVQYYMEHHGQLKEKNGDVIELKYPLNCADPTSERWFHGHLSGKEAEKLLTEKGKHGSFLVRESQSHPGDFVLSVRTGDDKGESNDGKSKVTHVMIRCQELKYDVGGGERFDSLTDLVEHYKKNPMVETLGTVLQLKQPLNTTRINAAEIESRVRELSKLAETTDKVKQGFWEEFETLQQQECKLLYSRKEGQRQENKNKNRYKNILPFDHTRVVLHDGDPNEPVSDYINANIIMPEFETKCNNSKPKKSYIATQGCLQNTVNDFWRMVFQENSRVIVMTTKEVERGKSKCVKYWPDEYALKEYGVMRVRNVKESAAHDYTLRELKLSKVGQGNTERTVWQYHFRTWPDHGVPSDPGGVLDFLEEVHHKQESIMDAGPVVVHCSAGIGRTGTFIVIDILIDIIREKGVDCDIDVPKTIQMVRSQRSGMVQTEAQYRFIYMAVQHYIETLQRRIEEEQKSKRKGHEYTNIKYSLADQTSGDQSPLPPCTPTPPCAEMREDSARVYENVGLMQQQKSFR
Quantity Name: IC50

Name the reported IC50 value associated with the compound `Cl.Nc1cc(C(F)(F)F)cc2c1SSSSS2`
6.9 µM

###

# Assay System: PTP1B (Homo sapiens)
# Sequence (P18031 1-435): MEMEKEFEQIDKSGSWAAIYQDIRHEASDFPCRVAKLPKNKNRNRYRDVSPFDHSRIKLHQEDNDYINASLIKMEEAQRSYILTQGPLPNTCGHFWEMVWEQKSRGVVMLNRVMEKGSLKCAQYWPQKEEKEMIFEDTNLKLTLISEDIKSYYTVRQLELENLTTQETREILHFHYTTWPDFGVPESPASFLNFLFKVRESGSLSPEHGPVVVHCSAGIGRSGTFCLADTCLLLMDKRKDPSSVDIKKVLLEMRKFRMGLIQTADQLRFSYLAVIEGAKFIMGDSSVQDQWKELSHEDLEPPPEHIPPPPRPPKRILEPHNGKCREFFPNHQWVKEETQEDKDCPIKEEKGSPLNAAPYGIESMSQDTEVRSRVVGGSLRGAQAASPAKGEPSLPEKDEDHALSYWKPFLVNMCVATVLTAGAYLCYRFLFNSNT
Quantity Name: IC50 (nM)
Form entry: value (nM) — number only.

Value wanted: IC50 (PTP1B (Homo sapiens)) of entry `Cl.Nc1cc(C(F)(F)F)cc2c1SSSSS2`
724

src = paper PMC4122355
